Sourced from paper PMC8758481

target: imidazoline-2 binding sites (I2BS); assay: ^3H-BU99008 competition binding assay with unlabelled ligands in temporal cortex brain homogenate; set-up: species or system human; conditions: AD temporal cortex, vs 1 nM ^3H-BU99008, single binding site; read-out: IC50
Measured Quantity: IC50 (µM)
Numbers only, in µM.

Exam item: Lookup: IC50 / imidazoline-2 binding sites (I2BS) / "Cl.c1ccc2nc(C3=NCCN3)ccc2c1"
Marked response: 0.416

----------
target: imidazoline-2 binding sites (I2BS); test: ^3H-BU99008 competition binding with unlabelled BU99008 in the presence of MAO B inhibitors; parameters: species or system human; settings: CN (71 years), unlabelled BU99008 alone, vs 1 nM ^3H-BU99008; read-out: IC50_2 (HA)
Measured Quantity: IC50 (nM)
Answers are plain numbers, in nM.

Exam item: Request the reported IC50 associated with Cn1c(C2=NCCN2)cc2ccccc21 [BU99008]
Marked response: 2.81

----------
Biological target: monoamine oxidase B (MAO B) (Homo sapiens, UniProt P27338)
Construct: from tissue; host or cells: large frozen postmortem human brain sections (control, sporadic AD, AβPParc carrier)
Sequence (P27338 1-520): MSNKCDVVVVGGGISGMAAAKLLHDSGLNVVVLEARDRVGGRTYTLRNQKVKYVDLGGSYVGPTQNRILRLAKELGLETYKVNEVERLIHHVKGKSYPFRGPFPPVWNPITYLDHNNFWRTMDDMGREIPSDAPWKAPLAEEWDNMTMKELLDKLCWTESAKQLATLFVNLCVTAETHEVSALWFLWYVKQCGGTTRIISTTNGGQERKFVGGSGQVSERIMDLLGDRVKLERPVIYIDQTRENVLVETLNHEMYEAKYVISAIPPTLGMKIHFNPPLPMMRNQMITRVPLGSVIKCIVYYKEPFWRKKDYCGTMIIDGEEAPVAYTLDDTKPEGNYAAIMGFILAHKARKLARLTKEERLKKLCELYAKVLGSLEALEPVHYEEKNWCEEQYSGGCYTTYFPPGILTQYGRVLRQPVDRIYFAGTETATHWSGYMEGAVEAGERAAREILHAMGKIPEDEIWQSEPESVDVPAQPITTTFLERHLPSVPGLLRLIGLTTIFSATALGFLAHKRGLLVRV
Assay: ^3H-Deprenyl competition binding assay in temporal cortex brain homogenate
Conditions: CN temporal cortex, vs 10 nM ^3H-Deprenyl, two-site fit; read-out: IC50_1
Description: After 1 h incubation a similar protocol as saturation binding assay was done and the binding was quantified using the scintillation counter. The competition binding data was fitted and analysed using non-linear regression competitive-binding function of GraphPad Prism 8.3 software to determine IC50 (half-maximal inhibitory concentration) values.
Measured Quantity: pIC50
Answers are plain numbers, as −log10 of the molar value.

Exam item: Dear colleague, I am looking for the recorded pIC50 of the following molecule: Cn1c(C2=NCCN2)cc2ccccc21 [BU99008]
Marked response: 9.14

----------
biological target: monoamine oxidase B (MAO B) (Homo sapiens, UniProt P27338); construct: from tissue; host or cells: large frozen postmortem human brain sections (control, sporadic AD, AβPParc carrier); test: ^3H-Deprenyl competition binding assay in temporal cortex brain homogenate; conditions: AD temporal cortex, vs 10 nM ^3H-Deprenyl, two-site fit; read-out: IC50_2
Measured Quantity: IC50
Give me the value, and tack the unit on after it.

Exam item: Any idea what its IC50 is? The compound is Cn1c(C2=NCCN2)cc2ccccc21 [BU99008]
Marked response: 254 nM
